assay system: Human TfR1 protein (R&D Systems, 2474-TR or Acro Biosystems, CD1-H5243) (human, UniProt P02786 89-760)
Sequence (P02786 89-760 limits assumed): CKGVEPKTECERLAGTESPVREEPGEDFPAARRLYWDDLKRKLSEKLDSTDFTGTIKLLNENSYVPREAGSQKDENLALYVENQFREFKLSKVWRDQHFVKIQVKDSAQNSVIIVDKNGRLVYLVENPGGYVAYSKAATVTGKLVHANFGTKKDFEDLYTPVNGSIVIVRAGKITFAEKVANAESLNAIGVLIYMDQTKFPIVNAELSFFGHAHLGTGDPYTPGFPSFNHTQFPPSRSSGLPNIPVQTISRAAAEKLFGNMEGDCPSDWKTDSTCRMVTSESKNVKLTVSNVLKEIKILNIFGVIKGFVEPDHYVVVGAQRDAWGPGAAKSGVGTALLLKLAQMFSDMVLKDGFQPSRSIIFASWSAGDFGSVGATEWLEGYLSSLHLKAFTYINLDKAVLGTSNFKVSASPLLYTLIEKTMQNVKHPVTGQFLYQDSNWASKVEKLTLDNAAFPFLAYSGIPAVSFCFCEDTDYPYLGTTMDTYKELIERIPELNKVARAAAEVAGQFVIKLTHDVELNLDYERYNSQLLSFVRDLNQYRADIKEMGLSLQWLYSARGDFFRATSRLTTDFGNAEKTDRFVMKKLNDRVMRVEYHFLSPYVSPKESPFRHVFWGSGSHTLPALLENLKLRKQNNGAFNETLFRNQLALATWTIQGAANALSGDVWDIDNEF
test: FP competition, competitor BCY15768
pKi: −log10 of the molar value. Starred links: 1 amine or outer side, 2 acyl side, 3 side chain; linkers in the order of their positions; H or OH if unused. Positions of bridges follow the written chain, without caps; N, C: chain ends. No end group written: not given here. *: point of attachment. TATB = O=C(C[*:1])N1CN(C(=O)C[*:2])CN(C(=O)C[*:3])C1; AzPro = azidopropyl, [N-]=[N+]=NCCC*
Below, each entry is listed with its recorded pKi.

binder	pKi
CSPDAHLGCISYC (3 Cys on a scaffold (TATA or TATB assumed by the filing for non-inhibitory peptides; not stated for this one)) [BCY15935]	6.52
AzPro-CSPDAHLGCISYC (linker 1-9-13 via TATB (inferred)) [BCY17869]	7.52
Ac-CSPDAHLGCISYC (linker 1-9-13 via TATB) [BCY15891]	7.03
NWNCPXDAYLGCXSYC (3 Cys on TATB; core as printed CP[HyP]DAYLGC[tBuGly]SYC) [BCY18033]	8.22
ACSPDAHLGCISYCPHP-NH2 (linker 2-10-14 via TATB (inferred)) [BCY17115]	7.52
ACSPDAHLGCISYCA (linker 2-10-14 via TATB) [BCY15468]	6.99
CPXDAYLGCXSYCEPW (3 Cys on TATB; N-terminal acetyl (Ac); core as printed CP[HyP]DAYLGC[tBuGly]SYC) [BCY17995]	8.30
